Hi there, I'd appreciate the recorded pIC50 for every entry that follows.
pIC50: −log10 of the molar value.

Exercise: Fill in pIC50 for c1ccc(CCNc2ccnc(N3CCOCC3)n2)cc1 tested with UniProtKB P81908.
Sequence (P81908 whole entry): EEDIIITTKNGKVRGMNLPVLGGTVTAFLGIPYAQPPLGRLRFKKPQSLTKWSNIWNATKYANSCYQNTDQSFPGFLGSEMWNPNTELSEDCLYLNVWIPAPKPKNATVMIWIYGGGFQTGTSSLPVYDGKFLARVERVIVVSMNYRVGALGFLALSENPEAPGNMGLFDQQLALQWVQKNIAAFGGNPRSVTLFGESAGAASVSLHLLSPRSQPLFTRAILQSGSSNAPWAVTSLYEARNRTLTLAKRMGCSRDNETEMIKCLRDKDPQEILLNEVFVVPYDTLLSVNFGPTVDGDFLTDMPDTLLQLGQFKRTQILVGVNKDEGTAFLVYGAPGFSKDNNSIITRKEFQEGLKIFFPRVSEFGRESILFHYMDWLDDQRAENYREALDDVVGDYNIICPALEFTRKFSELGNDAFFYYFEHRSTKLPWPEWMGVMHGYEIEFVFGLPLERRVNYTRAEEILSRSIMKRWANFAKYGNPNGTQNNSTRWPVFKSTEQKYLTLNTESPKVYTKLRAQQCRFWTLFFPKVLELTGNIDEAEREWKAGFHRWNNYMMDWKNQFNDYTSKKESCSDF
Solution: < 4.00

Exercise: Fill in pIC50 for c1ccc(CCNc2ccnc(N3CCSCC3)n2)cc1 tested with UniProtKB P81908.
Solution: < 4.00

Exercise: Fill in pIC50 for CN1CCN(c2nccc(NCCc3ccccc3)n2)CC1 tested with UniProtKB P81908.
Solution: < 4.00

Exercise: Fill in pIC50 for CN1CCN(c2nccc(NCc3ccccc3)n2)CC1 tested with UniProtKB P81908.
Solution: < 4.00
